meta.source: ChEMBL document CHEMBL1909294

Tested on: Hepatotoxicity
Recorded HepSE_Combined Scores, one value per entry.
Answer using only a numeral; do not append any unit.

1. N[C@@H](C(=O)N[C@@H]1C(=O)N2C(C(=O)O)=C(Cl)CC[C@H]12)c1ccccc1 [LORACARBEF ANHYDROUS]    1
2. CC[C@H](C)[C@@H]1NC(=O)[C@H](Cc2ccc(O)cc2)NC(=O)[C@@H](N)CSSC[C@@H](C(=O)N2CCC[C@H]2C(=O)N[C@@H](CC(C)C)C(=O)NCC(N)=O)NC(=O)[C@H](CC(N)=O)NC(=O)[C@H](CCC(N)=O)NC1=O [OXYTOCIN]    0
3. CC1(C)S[C@@H]2[C@H](NC(=O)[C@H](N)c3ccccc3)C(=O)N2[C@H]1C(=O)O [AMPICILLIN]    0
4. NC(=O)c1ncn([C@@H]2O[C@H](CO)[C@@H](O)[C@H]2O)n1 [RIBAVIRIN]    4
5. CCN(CC)CCNC(=O)c1c(C)[nH]c(/C=C2\C(=O)Nc3ccc(F)cc32)c1C [SUNITINIB]    2

Qu. Report HepSE_Combined Scores for Cc1nc2n(c(=O)c1CCN1CCC(c3noc4cc(F)ccc34)CC1)CCCC2O (configuration not stated) [PALIPERIDONE] tested on Hepatotoxicity.
Ans. 0

Qu. Report HepSE_Combined Scores for CCOC(=O)C1=C(COCCN)NC(C)=C(C(=O)OC)C1c1ccccc1Cl (configuration not stated) [AMLODIPINE] tested on Hepatotoxicity.
Ans. 2

---

Recorded HepSE_hepatic necrosis, one value per entry.
Tested on: Hepatotoxicity
Settings: Liver
Answer using only a numeral; do not append any unit.

In the examples that follow, each entry is paired with its recorded HepSE_hepatic necrosis.
1) CNC[C@H](O)c1ccc(O)c(O)c1 [EPINEPHRINE]    0
2) O=C(O)COCCN1CCN(C(c2ccccc2)c2ccc(Cl)cc2)CC1 (stereo not drawn) [CETIRIZINE]    0
3) NNc1nncc2ccccc12 [HYDRALAZINE]    0
4) O=P1(N(CCCl)CCCl)NCCCO1 (stereo not drawn) [CYCLOPHOSPHAMIDE ANHYDROUS]    0
5) CC1=C(C(=O)O)N2C(=O)[C@@H](NC(=O)[C@H](N)c3ccccc3)[C@H]2SC1 [CEPHALEXIN ANHYDROUS]    0
6) OCCOCCN1CCN(C2=Nc3ccccc3Sc3ccccc32)CC1 [QUETIAPINE]    0
7) CC(C)(C(=O)c1cccnc1)c1cccnc1 [METYRAPONE]    0
8) CN(C)CCOC(c1ccccc1)c1ccccc1 [DIPHENHYDRAMINE]    0
9) CC1(C)NC(=O)N(c2ccc([N+](=O)[O-])c(C(F)(F)F)c2)C1=O [NILUTAMIDE]    0
10) CCOC(=O)N1CCC(=C2c3ccc(Cl)cc3CCc3cccnc32)CC1 [LORATADINE]    0

Qu. If you can, please state the reported HepSE_hepatic necrosis value of OCC(S)CS (stereo not drawn) [DIMERCAPROL] .
Ans. 0

Qu. If you can, please state the reported HepSE_hepatic necrosis value of NCCc1ccc(O)c(O)c1 [DOPAMINE] .
Ans. 0

Qu. If you can, please state the reported HepSE_hepatic necrosis value of COc1cc([C@@H]2c3cc4c(cc3[C@@H](O[C@@H]3O[C@@H]5CO[C@@H](C)O[C@H]5[C@H](O)[C@H]3O)[C@H]3COC(=O)[C@H]23)OCO4)cc(OC)c1O [ETOPOSIDE] .
Ans. 0

Qu. If you can, please state the reported HepSE_hepatic necrosis value of CN1CC[C@]23c4c5ccc(O)c4O[C@H]2[C@@H](O)C=C[C@H]3[C@H]1C5 [MORPHINE] .
Ans. 0

Qu. If you can, please state the reported HepSE_hepatic necrosis value of O=C1CN(/N=C/c2ccc([N+](=O)[O-])o2)C(=O)N1 [NITROFURANTOIN] .
Ans. 1

Qu. If you can, please state the reported HepSE_hepatic necrosis value of CNCCC=C1c2ccccc2CCc2ccccc21 [NORTRIPTYLINE] .
Ans. 1

Qu. If you can, please state the reported HepSE_hepatic necrosis value of CC(C)C[C@H](NC(=O)[C@H](Cc1ccccc1)NC(=O)c1cnccn1)B(O)O [BORTEZOMIB] .
Ans. 0

Qu. If you can, please state the reported HepSE_hepatic necrosis value of O=C(O)c1cn(C2CC2)c2cc(N3CCNCC3)c(F)cc2c1=O [CIPROFLOXACIN] .
Ans. 1

Qu. If you can, please state the reported HepSE_hepatic necrosis value of CC(=O)O[C@H]1C(=O)[C@@]2(C)[C@H]([C@H](OC(=O)c3ccccc3)[C@]3(O)C[C@H](OC(=O)[C@H](O)[C@@H](NC(=O)c4ccccc4)c4ccccc4)C(C)=C1C3(C)C)[C@]1(OC(C)=O)CO[C@@H]1C[C@@H]2O [PACLITAXEL] .
Ans. 1

Qu. If you can, please state the reported HepSE_hepatic necrosis value of O=C(O)Cc1ccccc1Nc1c(Cl)cccc1Cl [DICLOFENAC] .
Ans. 1

Qu. If you can, please state the reported HepSE_hepatic necrosis value of CC(C)(C)NCC(O)c1ccc(O)c(CO)c1 (stereo not drawn) [ALBUTEROL] .
Ans. 0

Qu. If you can, please state the reported HepSE_hepatic necrosis value of Nc1ccc(S(N)(=O)=O)cc1 [SULFANILAMIDE] .
Ans. 0

Qu. If you can, please state the reported HepSE_hepatic necrosis value of Nc1ccn([C@H]2CC[C@@H](CO)O2)c(=O)n1 [ZALCITABINE] .
Ans. 0

Qu. If you can, please state the reported HepSE_hepatic necrosis value of CC(=O)O [ACETIC ACID] .
Ans. 0

Qu. If you can, please state the reported HepSE_hepatic necrosis value of COc1ccc2cc([C@H](C)C(=O)O)ccc2c1 [NAPROXEN] .
Ans. 0
